Where do these numbers come from? They come from patent US8101761B2.

# tgt: human MR (mineralocorticoid receptor) (Homo sapiens)
# Sequence (P08235 1-984): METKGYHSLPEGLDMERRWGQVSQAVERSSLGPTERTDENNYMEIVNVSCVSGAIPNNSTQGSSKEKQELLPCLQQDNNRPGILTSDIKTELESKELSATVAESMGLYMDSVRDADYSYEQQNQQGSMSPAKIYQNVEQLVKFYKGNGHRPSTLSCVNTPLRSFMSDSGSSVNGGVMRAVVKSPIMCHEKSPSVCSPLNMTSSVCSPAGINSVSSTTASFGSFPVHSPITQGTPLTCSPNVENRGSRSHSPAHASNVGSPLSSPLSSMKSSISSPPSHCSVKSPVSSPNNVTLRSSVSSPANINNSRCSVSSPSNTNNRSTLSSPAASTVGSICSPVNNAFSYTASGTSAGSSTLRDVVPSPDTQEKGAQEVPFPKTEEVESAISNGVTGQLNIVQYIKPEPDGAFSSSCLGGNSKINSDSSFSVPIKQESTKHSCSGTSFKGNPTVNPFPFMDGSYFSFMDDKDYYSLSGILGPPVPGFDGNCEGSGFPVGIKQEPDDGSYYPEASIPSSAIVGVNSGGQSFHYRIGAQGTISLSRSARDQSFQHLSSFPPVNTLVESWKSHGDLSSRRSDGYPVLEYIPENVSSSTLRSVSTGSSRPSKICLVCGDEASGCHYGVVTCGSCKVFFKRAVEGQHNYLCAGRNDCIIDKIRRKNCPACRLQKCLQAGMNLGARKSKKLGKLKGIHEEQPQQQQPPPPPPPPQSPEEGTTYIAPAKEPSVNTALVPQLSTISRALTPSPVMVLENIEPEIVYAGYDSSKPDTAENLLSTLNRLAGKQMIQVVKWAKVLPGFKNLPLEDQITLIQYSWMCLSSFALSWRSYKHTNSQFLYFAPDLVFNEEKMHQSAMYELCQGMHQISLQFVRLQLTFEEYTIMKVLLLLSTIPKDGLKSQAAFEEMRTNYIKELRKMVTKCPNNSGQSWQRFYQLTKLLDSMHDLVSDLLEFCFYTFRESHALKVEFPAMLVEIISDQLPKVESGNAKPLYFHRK
# procedureText: Nuclear hormone receptor competition binding assay, MR
# conditions: HEK293 lysate overexpressing human MR, [3H]-aldosterone; mean of n=7
# Excerpt: Cell lysates from human embryonic kidney HEK293 cells overexpressing human GR (glucocorticoid receptor), AR (androgen receptor), MR (mineralocorticoid receptor), or PR (progesterone receptor) are used for receptor-ligand competition binding assays to determine Ki values. […]
assayReadout: Ki

Annotate the compound `CC/C(=C1\c2ccc(F)cc2OCc2ncccc21)c1cccc(NS(C)(=O)=O)c1` with its measured Ki.
~9.2 nM

###

# tgt: human androgen receptor (AR) (Homo sapiens, UniProt P10275)
# Sequence (P10275 1-920): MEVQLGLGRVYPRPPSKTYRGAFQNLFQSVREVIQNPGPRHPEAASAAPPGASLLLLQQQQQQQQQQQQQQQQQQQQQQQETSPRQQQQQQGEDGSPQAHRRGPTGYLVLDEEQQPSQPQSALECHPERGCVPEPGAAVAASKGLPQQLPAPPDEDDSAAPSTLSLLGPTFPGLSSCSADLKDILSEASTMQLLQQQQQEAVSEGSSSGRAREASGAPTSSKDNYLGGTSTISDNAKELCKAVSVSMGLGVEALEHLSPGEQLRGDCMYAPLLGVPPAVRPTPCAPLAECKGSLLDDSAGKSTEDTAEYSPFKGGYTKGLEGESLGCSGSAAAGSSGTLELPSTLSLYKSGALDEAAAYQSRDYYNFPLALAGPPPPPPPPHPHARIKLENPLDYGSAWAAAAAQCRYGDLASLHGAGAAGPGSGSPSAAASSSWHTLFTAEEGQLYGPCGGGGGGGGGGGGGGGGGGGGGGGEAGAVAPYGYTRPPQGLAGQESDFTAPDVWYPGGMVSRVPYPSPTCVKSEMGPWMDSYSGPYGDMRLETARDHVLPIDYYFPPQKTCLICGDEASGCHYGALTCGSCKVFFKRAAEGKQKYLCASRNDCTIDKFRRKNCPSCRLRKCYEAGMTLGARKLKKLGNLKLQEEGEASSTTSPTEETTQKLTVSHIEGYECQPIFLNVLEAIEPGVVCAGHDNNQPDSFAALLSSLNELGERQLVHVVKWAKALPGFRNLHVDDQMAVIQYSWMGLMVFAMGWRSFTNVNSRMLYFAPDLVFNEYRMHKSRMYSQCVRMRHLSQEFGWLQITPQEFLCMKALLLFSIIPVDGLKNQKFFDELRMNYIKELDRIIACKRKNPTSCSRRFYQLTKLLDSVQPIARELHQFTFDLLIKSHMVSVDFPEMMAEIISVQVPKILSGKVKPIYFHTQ
# procedureText: Nuclear hormone receptor functional modulation assay (probasin ARE-luciferase reporter, HEK293), AR
# conditions: agonist mode; mean of n=4 or 5; read-out: EC50 in activating transcription, AR
pEC50: −log10 of the molar value.
assayReadout: pEC50

# return pEC50 of `CC/C(=C1\c2ccc(F)cc2OCc2ncccc21)c1cccc(NS(C)(=O)=O)c1` (system: human androgen receptor (AR) (Homo sapiens, UniProt P10275))
< 5.00
